system name: human recombinant H-PGDS (Homo sapiens, UniProt O60760)
Sequence (O60760 whole entry): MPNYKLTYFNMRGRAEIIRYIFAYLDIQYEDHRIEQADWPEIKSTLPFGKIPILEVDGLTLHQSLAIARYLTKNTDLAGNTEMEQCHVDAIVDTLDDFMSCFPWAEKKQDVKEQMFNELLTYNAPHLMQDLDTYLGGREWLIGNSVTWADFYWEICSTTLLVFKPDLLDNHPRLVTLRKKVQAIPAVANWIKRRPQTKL
assay explanation: Fluorescence Intensity h-PGDS TBA Enzyme Assay
Format: biochemical
measurement parameters: 1:175,000 human recombinant H-PGDS, highest inhibitor concentration typically 1 μM
Label class 1 when IC50 is strictly below 40 nM; otherwise label class 0.

[Q] Below 40 nM on IC50? Entry "O=C(NCc1ccc(Cl)c(Cl)c1)c1ccc(-c2ccc(F)cc2)nc1"
[A] class 0

[Q] Threshold test, IC50 < 40 nM: "O=C(NCc1cn2ccccc2n1)c1ccc(-c2cccc(F)c2)nc1"
[A] class 1

[Q] hey, is IC50 for "O=C(NCCN1CCOC1=O)c1ccc(-c2cccc(F)c2)nc1" lower than 40 nM or not?
[A] class 1

[Q] Is IC50 of "COc1cccc(-c2ccc(C(=O)NCCN3CCOC3=O)cn2)c1" strictly below 40 nM?
[A] class 0

[Q] For "COC(=O)c1ccc(CNC(=O)c2ccc(-c3cccc(OC)c3)nc2)cc1" , is the recorded IC50 below the cut-off of 40 nM?
[A] class 0

[Q] A record lists "O=C(NCCCNc1ccccn1)c1ccc(-c2ccccc2)nc1" . Is its IC50 below 40 nM?
[A] class 1

[Q] Would you kindly verify if IC50 of "Cc1cccc(-c2ccc(C(=O)NCCN3CCCCC3)cn2)c1" is strictly less than 40 nM?
[A] class 0

[Q] Answer whether the compound "O=C(NCc1nnc(Cc2ccccc2)o1)c1ccc(-c2cccc(F)c2)nc1" has IC50 strictly less than 40 nM
[A] class 1

[Q] In the record for "O=C(NCc1noc(C(=O)N2CC[C@@H](O)C2)n1)c1ccc(-c2cccc(F)c2)nc1" , is IC50 less than 40 nM?
[A] class 0

[Q] I wonder whether "Cc1cccc(-c2ccc(C(=O)NCc3ccc(S(C)(=O)=O)cc3)cn2)c1" has IC50 below 40 nM. Can you tell?
[A] class 1

[Q] # check: IC50 < 40 nM for COc1ccc(C(CNC(=O)c2ccc(-c3cccc(F)c3)nc2)N2CCOCC2)cc1 (stereo not drawn)
[A] class 0

[Q] Please indicate whether the reported IC50 of "O=C(NCc1nc2cc(F)ccc2[nH]1)c1ccc(-c2cccc(F)c2)nc1" is strictly below 40 nM.
[A] class 1

[Q] Lab note: IC50 threshold 40 nM. Does this compound come in strictly under it? "CCc1cn2nc(N3C[C@H](NC(=O)c4ccc(-c5cccc(F)c5)nc4)[C@@H](O)C3)ccc2n1"
[A] class 0

[Q] hey, is IC50 for "COc1ccc2nc(CNC(=O)c3ccc(-c4cccc(F)c4)nc3)[nH]c2c1" lower than 40 nM or not?
[A] class 0

[Q] Dear colleague, could you confirm whether IC50 of COc1ccc(C(Cc2cc(C)no2)NC(=O)c2ccc(-c3cccc(F)c3)nc2)cc1OC (stereo not drawn) falls below 40 nM? Thanks.
[A] class 1

[Q] hey, is IC50 for "COC(=O)[C@H](Cc1ccc(Cl)cc1)NC(=O)c1ccc(-c2ccccc2)nc1" lower than 40 nM or not?
[A] class 1

[Q] Record "O=C(NC[C@@H]1COc2ccccc2C1)c1ccc(-c2cccc(F)c2)nc1" : is its IC50 strictly below 40 nM?
[A] class 1

[Q] State whether 40 nM exceeds IC50 recorded for "Cc1nnc(CNC(=O)c2ccc(-c3cccc(F)c3)nc2)o1" .
[A] class 0

[Q] Input "CC(C)Cc1nnc(CCNC(=O)c2ccc(-c3cccc(F)c3)nc2)o1" ; condition: IC50 strictly below 40 nM. Does it hold?
[A] class 1

[Q] is_below(IC50, 40 nM) for "O=C(NCc1cccc(F)c1)c1ccc(-c2ccc(F)cc2)nc1" ?
[A] class 0

[Q] Determine if O=C(NC(c1ccc(F)c(F)c1)c1nn[nH]n1)c1ccc(-c2cccc(F)c2)nc1 (stereo not drawn) shows IC50 strictly lower than 40 nM.
[A] class 1

[Q] Lab note: IC50 threshold 40 nM. Does this compound come in strictly under it? "COCCCNC(=O)c1ccc(-c2cccc(F)c2)nc1"
[A] class 0

[Q] Input "COc1cccc(-c2ccc(C(=O)NCc3ccc(SC)cc3)cn2)c1" ; condition: IC50 strictly below 40 nM. Does it hold?
[A] class 0

[Q] Problem: For the compound "Cc1cccc(-c2ccc(C(=O)NC(C)C)cn2)c1" , is IC50 under 40 nM?
[A] class 1

[Q] Is IC50 strictly under 40 nM for the entry "O=C(NCCc1cccs1)c1ccc(-c2ccccc2)nc1" ?
[A] class 1

[Q] I wonder whether CC(C)N1CCCC(CNC(=O)c2ccc(-c3cccc(F)c3)nc2)C1 (stereo not drawn) has IC50 below 40 nM. Can you tell?
[A] class 0

[Q] Threshold test, IC50 < 40 nM: "COC(=O)CC[C@@H](NC(=O)c1ccc(-c2cccc(F)c2)nc1)C(=O)OC"
[A] class 0

[Q] For this compound, is IC50 lower than 40 nM? "O=C(NCCCCNC(=O)c1ccc(-c2cccc(F)c2)nc1)OCc1ccccc1"
[A] class 1

[Q] Does this compound meet the criterion IC50 < 40 nM? "Cc1nc(CCNC(=O)c2ccc(-c3cccc(F)c3)nc2)cs1"
[A] class 1

[Q] # TODO verify IC50 < 40 nM strictly for this compound: "COc1cccc(-c2ccc(C(=O)NCC(C)C)cn2)c1"
[A] class 0

[Q] Strictly below 40 nM in IC50? CCCCNC(=O)c1ccc(-c2ccc(F)cc2)nc1 [Example 326, N-Butyl-6-(4-fluorophenyl)nicotinamide]
[A] class 0

[Q] In the record for "CC(=O)N1CCC(CNC(=O)c2ccc(-c3cccc(F)c3)nc2)CC1" , is IC50 less than 40 nM?
[A] class 1

[Q] Report whether reported IC50 is lower than 40 nM (strictly) for "CC(C)(CO)CNC(=O)c1ccc(-c2cccc(F)c2)nc1"
[A] class 0

[Q] I wonder whether O=C(NCC1COc2ccccc2C1)c1ccc(-c2cccc(F)c2)nc1 (stereo not drawn) has IC50 below 40 nM. Can you tell?
[A] class 1

[Q] is_below(IC50, 40 nM) for "CCOC(=O)CC[C@H](NC(=O)c1ccc(-c2ccccc2)nc1)C(=O)OCC" ?
[A] class 1
